# Test system: HepG2
# assay: cytotoxicity call (relative viability < 0.9)
# measurement-parameters: 10 µM
Among all 39,000 compounds or so, about 3,300 (8.5%) were called active. For the sample, actives were picked, then their nearest neighbours and some compounds at random.
Labels: t (active), f (inactive)

# input-smiles, cat
measured = [
    ("C[C@H]1CN([C@@H](C)CO)C(=O)c2cc(-c3ccc(C#N)cc3)cnc2O[C@@H]1CN(C)C(=O)Nc1ccc(C(F)(F)F)cc1", "f"),
    ("COc1cccc(NC(=O)N(C)C[C@H]2Oc3cc(C#CC4(O)CCCC4)ccc3S(=O)(=O)N([C@@H](C)CO)C[C@H]2C)c1", "f"),
    ("C[C@@H]1CN([C@H](C)CO)S(=O)(=O)c2ccc(/C=C/c3ccccc3)cc2O[C@H]1CN(C)C(=O)Nc1cc(F)ccc1F", "f"),
    ("Nc1nnc([C@H]2CCCO2)o1", "f"),
    ("COc1cccc(S(=O)(=O)N(C)C[C@@H]2Oc3ncc(C#CCC(C)C)cc3C(=O)N([C@H](C)CO)C[C@H]2C)c1", "f"),
    ("C[C@H](CO)N1C[C@H](C)[C@@H](CN(C)C(=O)Nc2cc(F)ccc2F)Oc2cc(/C=C/c3ccccc3)ccc2S1(=O)=O", "f"),
    ("C[C@@H]1CN([C@@H](C)CO)C(=O)Cc2cc(NC(=O)Nc3ccc(F)cc3)ccc2O[C@@H]1CN(C)Cc1ccc(Oc2ccccc2)cc1", "f"),
    ("C[C@@H]1CN([C@H](C)CO)S(=O)(=O)c2ccc(/C=C/c3ccccc3)cc2O[C@@H]1CN(C)C(=O)Nc1cc(F)ccc1F", "t"),
    ("O=C(Cn1cc([N+](=O)[O-])cn1)n1cccn1", "f"),
    ("C[C@@H]1CN([C@H](C)CO)S(=O)(=O)c2ccc(C#CC3(O)CCCC3)cc2O[C@@H]1CN(C)C(=O)Nc1ccccc1", "t"),
    ("C[C@@H]1CN([C@H](C)CO)C(=O)Cc2cc(NS(=O)(=O)c3cccs3)ccc2O[C@@H]1CN(C)S(C)(=O)=O", "f"),
    ("C[C@@H]1CCCCO[C@H](CN(C)CC2CCCCC2)[C@H](C)CN([C@@H](C)CO)C(=O)c2cc(NC(=O)NC3CCCCC3)ccc2O1", "f"),
    ("Cc1noc(C)c1S(=O)(=O)Nc1ccc2c(c1)C(=O)N([C@H](C)CO)C[C@H](C)[C@@H](CN(C)Cc1ccc(Cl)c(Cl)c1)OCCCC[C@@H](C)O2", "f"),
    ("COC(=O)c1c2oc(c1C(=O)OC)C(=O)N[C@@H](Cc1ccccc1)Cn1cc(nn1)[C@H](Cc1ccccc1)NC(=O)N[C@@H](CO)CC2", "f"),
    ("COc1cccc(NC(=O)N(C)C[C@H]2Oc3cc(C#CC4(O)CCCC4)ccc3S(=O)(=O)N([C@H](C)CO)C[C@@H]2C)c1", "f"),
]

---

# Tested on: HepG2
# assay: cytotoxicity call (relative viability < 0.9)
# measurement-parameters: 10 µM
Out of some 39,000 compounds screened, about 3,300 (8.5%) were called active. The sample as a whole holds a higher share of actives than the screen did.
Labels: active, inactive

# input-smiles, test-target, cat
data = [
    ("COc1ccc(-n2c(N)cc(=O)[nH]c2=O)cc1", "HepG2", "inactive"),
    ("C[C@H](C(=O)O)N1CCCCC1", "HepG2", "inactive"),
    ("CC(C)CC#Cc1cnc2c(c1)C(=O)N([C@@H](C)CO)C[C@@H](C)[C@@H](CN(C)S(=O)(=O)c1cccs1)O2", "HepG2", "inactive"),
    ("C[C@H]1CN([C@@H](C)CO)C(=O)c2cccc(NS(=O)(=O)c3cn(C)cn3)c2O[C@@H]1CN(C)C(=O)Nc1ccc(F)cc1", "HepG2", "inactive"),
    ("C[C@H]1CN([C@@H](C)CO)S(=O)(=O)c2ccc(-c3cccc(F)c3)cc2O[C@H]1CN(C)S(C)(=O)=O", "HepG2", "inactive"),
    ("Cc1ccc2sc(N(CCCN(C)C)C(=O)c3ccc(S(=O)(=O)N(C)C4CCCCC4)cc3)nc2c1C", "HepG2", "active"),
    ("CC(C)NC(=O)Nc1ccc2c(c1)C(=O)N([C@H](C)CO)C[C@@H](C)[C@H](CN(C)CC1CCCCC1)OCCCC[C@H](C)O2", "HepG2", "inactive"),
    ("O=C(C[C@H]1CC[C@H]2[C@@H](COC[C@@H](O)CN2S(=O)(=O)c2ccc(Cl)cc2)O1)NCc1ccncn1", "HepG2", "inactive"),
    ("CN(C)C(=O)C[C@H]1CC[C@@H]2[C@H](COc3ccc(NS(=O)(=O)c4cccc(F)c4)cc3C(=O)N2C)O1", "HepG2", "inactive"),
    ("COc1cc(OC)c(S(=O)(=O)N(C)Cc2ccccc2)cc1S(=O)(=O)N(C)Cc1ccccc1", "HepG2", "inactive"),
    ("COc1cccc(-c2ccc3c(c2)O[C@H](CN(C)C(=O)C2CCC2)[C@H](C)CN([C@H](C)CO)S3(=O)=O)c1", "HepG2", "inactive"),
    ("O=C(c1ccc(S(=O)(=O)N2CCCCCC2)cc1)N(Cc1cccnc1)c1nc2c(F)cc(F)cc2s1", "HepG2", "inactive"),
    ("Cc1ccc(S(=O)(=O)N(C)C[C@H]2Oc3c(NC(=O)c4ccncc4)cccc3C(=O)N([C@H](C)CO)C[C@@H]2C)cc1", "HepG2", "inactive"),
    ("C[C@H](CO)N1C[C@H](C)[C@@H](CN(C)S(=O)(=O)c2cccc(F)c2)Oc2ncc(C#CC3(O)CCCC3)cc2C1=O", "HepG2", "inactive"),
    ("Cc1ccc(S(=O)(=O)N(C)C[C@H]2OCCCC[C@H](C)Oc3ccc(NC(=O)Nc4ccc(C(F)(F)F)cc4)cc3C(=O)N([C@H](C)CO)C[C@@H]2C)cc1", "HepG2", "inactive"),
    ("CN1C(=O)c2cc(NC(=O)C3CCOCC3)ccc2OC[C@@H]2O[C@@H](CC(=O)NCc3ccc4c(c3)OCO4)CC[C@H]21", "HepG2", "inactive"),
]

---

# System: HepG2
# assay: cytotoxicity call (relative viability < 0.9)
# measurement-parameters: 10 µM
Out of some 39,000 compounds screened, about 3,300 (8.5%) were called active. Only a selection was taken, and actives are over-represented in it overall.
Labels: class 1 for active, class 0 for inactive

# input-smiles, cat
measured = [
    ("COc1ccc(NC(=O)Nc2ccc3c(c2)C(=O)N([C@H](C)CO)C[C@@H](C)[C@@H](CN(C)Cc2ccc(-c4ccccc4)cc2)O3)cc1", "class 1"),
    ("COc1ccc(NC(=O)Nc2ccc3c(c2)C(=O)N([C@H](C)CO)C[C@@H](C)[C@H](CN(C)Cc2ccc(Oc4ccccc4)cc2)O3)cc1", "class 0"),
    ("COc1ccc(NC(=O)Nc2ccc3c(c2)C(=O)N([C@@H](C)CO)C[C@@H](C)[C@@H](CN(C)Cc2ccc(-c4ccccc4)cc2)O3)cc1", "class 1"),
    ("C[C@H]1CN([C@@H](C)CO)C(=O)c2cc(NC(=O)c3ccncc3)ccc2O[C@H]1CN(C)Cc1ccc(Oc2ccccc2)cc1", "class 0"),
    ("COc1ccc(NC(=O)Nc2ccc3c(c2)C(=O)N([C@H](C)CO)C[C@@H](C)[C@H](CN(C)Cc2ccc(-c4ccccc4)cc2)O3)cc1", "class 1"),
    ("COc1ccc(NC(=O)Nc2ccc3c(c2)C(=O)N([C@H](C)CO)C[C@H](C)[C@H](CN(C)Cc2ccc(-c4ccccc4)cc2)O3)cc1", "class 1"),
    ("COc1ccc(NC(=O)Nc2ccc3c(c2)C(=O)N([C@H](C)CO)C[C@H](C)[C@@H](CN(C)Cc2ccc(-c4ccccc4)cc2)O3)cc1", "class 0"),
]

---

# System: HepG2
# assay: cytotoxicity call (relative viability < 0.9)
# measurement-parameters: 10 µM
Among all 39,000 compounds or so, about 3,300 (8.5%) were called active. What follows is part of a selection rich in actives, with near analogues and random picks from the rest.
Labels: t (active), f (inactive)

# input-smiles, cat
data = [
    ("C[C@@H]1CN([C@H](C)CO)C(=O)c2cc(-c3ccncc3)cnc2O[C@@H]1CN(C)S(=O)(=O)c1ccc(F)cc1", "f"),
    ("O=C(Nc1ccc(C(F)(F)F)cc1)Nc1cccc(Cl)c1", "t"),
    ("C[C@@H]1CN([C@H](C)CO)C(=O)Cc2cc(NC(=O)CCCCCC(=O)Nc3ccccc3N)ccc2O[C@H]1CN(C)C(=O)Nc1ccccc1", "f"),
    ("CCC(=O)Nc1ccc(Cl)cc1", "f"),
    ("CC(C)C(=O)Nc1cccc(Cl)c1", "f"),
]
